Tested on: PRKACA-PRKAR2A interaction (SmBiT-PRKACA / LgBiT-PRKAR2A), protein kinase A
Design: NanoLuc complementation counter-screen in cell extract, PRKACA with PRKAR2A, loss of luminescence, detects NanoLuc interference
Conditions: counter-screen for NanoLuc interference; 0.5 h, 20 µM; inhibitor
Where a name gives a salt, the structure may show the parent alone.
# Inh (PKA) per entry

COc1cccc2c1C(=O)c1c(O)c3c(c(O)c1C2=O)C[C@@](O)(C(=O)CO)C[C@@H]3O[C@H]1C[C@H](N)[C@H](O)[C@H](C)O1: 45.98%
COc1cc(-c2cn(C)c(=O)c3cnccc23)cc(OC)c1CN(C)C: 0.4975%
NC[C@@H]1O[C@H](O[C@H]2[C@@H](O)[C@H](O[C@@H]3[C@@H](O)[C@H](N)C[C@H](N)[C@H]3O[C@H]3O[C@H](CN)[C@@H](O)[C@H](O)[C@H]3N)O[C@@H]2CO)[C@H](N)[C@@H](O)[C@@H]1O [UM0142371:01, Neomycin sulfate]: 1.127%
CNCCC(Oc1ccc(C(F)(F)F)cc1)c1ccccc1 (stereo not drawn) [UM0118682:03, Fluoxetine HCl]: 5.529%
CS(=O)(=O)c1ccc(-c2cnc(N)c(C(=O)Nc3ccccc3)n2)cc1: 11.31%
Cc1c(Cl)cccc1S(=O)(=O)Nc1nc(CC(=O)N2CCN(C)CC2)cs1: 1.989%
O=c1cc(N2CCOCC2)oc2c(-c3cccc4c3sc3ccccc34)cccc12: 24.55%
CCc1cccc(CC)c1NC(=O)N1Cc2[nH]nc(NC(=O)c3ccc(N4CCN(C)CC4)cc3)c2C1: 7.851%
Cn1c(=O)c(F)c(Nc2ccc(I)cc2F)c2c(=O)n(C[C@@H](O)CO)cnc21: 15.12%
COc1c(C)c2c(c(O)c1C/C=C(\C)CCC(=O)O)C(=O)OC2: 1.414%

Lab note: next molecule to report on.
Consider the molecule NC(=O)c1cccc2[nH]c(-c3ccc([C@@H]4CCCN4)cc3F)nc12 . State its measured Inh (PKA).
5.639%

###

System: PRKACA-PRKAR2A interaction (SmBiT-PRKACA / LgBiT-PRKAR2A), protein kinase A
Parameters: NanoLuc complementation counter-screen in cell extract, PRKACA with PRKAR2A, loss of luminescence, detects NanoLuc interference
Conditions: counter-screen for NanoLuc interference; 0.5 h, 20 µM; inhibitor
Where a name gives a salt, the structure may show the parent alone.
# Inh (PKA) per entry
Number in %, nothing else.

CCN1CCN(c2cc3c(cc2F)c(=O)c(C(=O)O)cn3C2CC2)CC1: 1.786
Cc1ccc(NC(=O)c2cccc(N(C)C)c2)cc1NC(=O)c1ccc(O)cc1: 21.08
COc1ccc(C(=O)CC2(O)C(=O)Nc3c(Cl)ccc(Cl)c32)cc1 (stereo not shown): 4.248

Report its Inh (PKA) with PRKACA-PRKAR2A interaction (SmBiT-PRKACA / LgBiT-PRKAR2A), protein kinase A as the test system: CN1CCCN(C(=O)c2cccc(-c3ccc(/C=C4/C(=O)Nc5ccc(Cl)cc54)o3)c2)CC1
48.23

Report its Inh (PKA) with PRKACA-PRKAR2A interaction (SmBiT-PRKACA / LgBiT-PRKAR2A), protein kinase A as the test system: Cc1[nH]nc2ccc(-c3cncc(OC[C@@H](N)Cc4ccccc4)c3)cc12
19.6

Report its Inh (PKA) with PRKACA-PRKAR2A interaction (SmBiT-PRKACA / LgBiT-PRKAR2A), protein kinase A as the test system: COC1=CC(c2cc3ccccc3[nH]2)=N/C1=C\c1[nH]c(C)cc1C [UM0141758:01, Obatoclax mesylate (GX15-070)]
43.77

Report its Inh (PKA) with PRKACA-PRKAR2A interaction (SmBiT-PRKACA / LgBiT-PRKAR2A), protein kinase A as the test system: CNC(=O)c1ccccc1Nc1cc(Nc2ccc(N3CCOCC3)cc2OC)ncc1C(F)(F)F
14.93

###

# Inh (PKA) per entry
Test system: PRKACA-PRKAR2A interaction (SmBiT-PRKACA / LgBiT-PRKAR2A), protein kinase A
Set-up: NanoLuc complementation counter-screen in cell extract, PRKACA with PRKAR2A, loss of luminescence, detects NanoLuc interference
Conditions: counter-screen for NanoLuc interference, 0.5 h, 20 µM, inhibitor, Inh (PKA)
Where a name gives a salt, the structure may show the parent alone.
Number in %, nothing else.

Consider the following illustrative entries.
O=C(O)Cc1ccccc1Nc1c(Cl)cccc1Cl [UM0142393:01, Diclofenac Diethylamine]: 11.28
COc1cc(Nc2ncc(F)c(Nc3ccc4c(n3)NC(=O)C(C)(C)O4)n2)cc(OC)c1OC [UM0141915:01, R406 (free base)]: 51.96
CS(=O)(=O)N1CCN(Cc2cc3nc(-c4cccc5[nH]ncc45)nc(N4CCOCC4)c3s2)CC1 [UM0130976:02, GDC-0941]: 3.012
CCN(C)C(=O)Oc1cccc([C@H](C)N(C)C)c1 [UM0142069:01, Rivastigmine Tartrate]: 1.4
CC(=O)O[C@@]12CO[C@@H]1C[C@H](O)[C@@]1(C)C(=O)[C@H](O)C3=C(C)[C@@H](OC(=O)[C@H](O)[C@@H](NC(=O)OC(C)(C)C)c4ccccc4)C[C@@](O)([C@@H](OC(=O)c4ccccc4)[C@H]21)C3(C)C [UM0141543:01, Docetaxel Trihydrate]: 1.786

Consider the compound CN(C)C/C=C/C(=O)Nc1cc2c(Nc3ccc(F)c(Cl)c3)ncnc2cc1O[C@H]1CCOC1 [UM0141512:02, Afatinib (BIBW2992)] . State its measured Inh (PKA).
5.289

Consider the compound Nc1ccn([C@@H]2O[C@H](CO)[C@@H](O)C2(F)F)c(=O)n1 [UM0141399:01, Gemcitabine HCl] . State its measured Inh (PKA).
0.8082

###

Target: MeCP2-TBL1 interaction (MeCP2-SmBiT / TBL1-LgBiT) (Mus musculus)
Construct: expressed in transfected cells; crude lysate used as a cell-free assay
Sequence (Q9QXE7 166-527): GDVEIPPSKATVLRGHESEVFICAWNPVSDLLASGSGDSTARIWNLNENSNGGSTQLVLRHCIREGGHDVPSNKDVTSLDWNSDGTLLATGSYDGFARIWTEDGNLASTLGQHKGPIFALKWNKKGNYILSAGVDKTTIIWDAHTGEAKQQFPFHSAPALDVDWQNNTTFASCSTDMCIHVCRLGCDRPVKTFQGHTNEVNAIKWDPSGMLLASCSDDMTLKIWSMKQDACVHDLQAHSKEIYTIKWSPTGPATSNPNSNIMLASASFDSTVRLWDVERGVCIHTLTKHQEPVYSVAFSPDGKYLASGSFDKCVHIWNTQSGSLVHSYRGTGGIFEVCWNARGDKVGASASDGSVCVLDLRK
Assay: MeCP2-TBL1 NanoLuc luciferase complementation assay (cell-free, extracts of transfected HEK293 cells);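 also: each compound tested at 20 µM final concentration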
Format: binding, human
Conditions: primary screen of Asinex library, single well per compound
# Inhibition percent per entry
Field format: numeric only.

O=C(O)COc1cccc(C(=O)N2C[C@@H](c3ccccc3F)[C@@]3(CCCCC(=O)N3)C2)c1: 2.13
Cc1cc(NC(=O)CN2[C@H]3CCCCCN[C@@]3(C)C[C@H]2c2ccccc2)nn1C: -0.55
O=C1CCCC[C@]2(CN(C(=O)CCCc3cn[nH]c3)C[C@H]2c2ccccc2F)N1: -3.21

Lab note: next compound to report on.
Consider the compound CCOc1cccc2c1OC(C)(C)[C@@H]1C[C@@H]3[C@@H](CCCN3C(=O)c3cccc(F)c3C(=O)O)O[C@@H]21 . State its measured Inhibition percent.
-0.29

###

Tested on: PRKACA-PRKAR2A interaction (SmBiT-PRKACA / LgBiT-PRKAR2A), protein kinase A
Parameters: NanoLuc complementation counter-screen in cell extract, PRKACA with PRKAR2A, loss of luminescence, detects NanoLuc interference
Details: counter-screen for NanoLuc interference; 0.5 h, 20 µM; inhibitor
Structures can show the parent of a compound that is named as a salt.
# Inh (PKA) per entry

Consider the following illustrative entries.
C=C[C@@H]1C[C@]1(NC(=O)[C@@H]1C[C@@H](Oc2ncc(OC)c3ccc(Cl)cc23)CN1C(=O)[C@@H](NC(=O)OC(C)(C)C)C(C)(C)C)C(=O)NS(=O)(=O)C1CC1: -7.752%
CCCCCCCCCCCCc1ccc(S(=O)(=O)Nc2nncs2)cc1: 11.59%
C[C@H]1[C@H](C)CC[C@]2(C(=O)O[C@@H]3O[C@H](CO[C@@H]4O[C@H](CO)[C@@H](O[C@@H]5O[C@H](C)[C@H](O)[C@@H](O)[C@H]5O)[C@H](O)[C@H]4O)[C@@H](O)[C@H](O)[C@H]3O)CC[C@]3(C)C(=CC[C@@H]4[C@@]5(C)C[C@@H](O)[C@H](O)[C@@](C)(CO)[C@@H]5CC[C@]43C)[C@H]12 [UM0142844:01, Asiaticoside]: -0.7873%
CC#CC(=O)Nc1ccc2ncnc(Nc3cccc(Br)c3)c2c1 [UM0142687:01, CL-387785 (EKI-785)]: 17.86%
CN(C)CCC[C@@]1(c2ccc(F)cc2)OCc2cc(C#N)ccc21 [UM0121246:02, Escitalopram Oxalate]: -0.3205%

Consider the molecule C=CC(=O)Nc1cccc(Oc2nc(Nc3ccc(N4CCN(C)CC4)cc3OC)ncc2Cl)c1 . State its measured Inh (PKA).
30.48%

Consider the molecule N#CSc1cc(SC#N)c(N)nc1N . State its measured Inh (PKA).
19.82%
